Overview of reported melting point across a group of molecules:

Recorded melting point, per entry:
# MOLECULE, melting point
records = [
    ("Cc1ccc2[nH]c(=O)n(CCS)c(=O)c2c1", "309 to 311 °C"),
    ("Oc1cccc(-c2ccc(OC[C@H](O)CCc3cccnc3)cc2)c1", "169 °C"),
    ("NC(=O)c1[nH]c2cccnc2c1Sc1cccc(F)c1", "235 to 237 °C"),
]

Can you look up the measured melting point of CCc1oc(CCOc2ccc(N)cc2)nc1-c1ccccc1 for me?
89 to 90 °C

Can you look up the measured melting point of CC1(C)OCC(=O)Nc2ccc(-c3cc(F)cc(C#N)c3)cc21 for me?
238 to 239 °C

Can you look up the measured melting point of C=C(C)C(=O)Nc1ccc(NC(=O)C(F)(F)C(F)(F)C(F)(F)F)c(O)c1 for me?
247 to 250 °C

Can you look up the measured melting point of OC1CCc2c(I)cccc21 (stereo not drawn) for me?
83 to 84 °C

Can you look up the measured melting point of CC12CCC3C(CCC4=C(N)C(=O)CCC43C)C1CCC2=O (stereo not drawn) for me?
186 to 188 °C

Can you look up the measured melting point of O=C1Nc2ccccc2C(c2ccccc2F)CC1Br (stereo not drawn) for me?
208 to 214 °C

Can you look up the measured melting point of OC[C@@H]1O[C@H](n2c(NC3CC3)nc3c(Cl)c(Cl)c(Cl)cc32)[C@@H](O)[C@H]1O for me?
208 to 209 °C

----------
ATTRIBUTE MEASURED: melting point

Recorded melting point, per entry:
# MOLECULE, melting point
rows = [
    ("CCc1ccc2c(c1)c1cc(OC)cc3c(=O)c(Cc4cccnc4)cn2c31", "109 to 110 °C"),
    ("CC(=O)NC[C@H]1CN(c2ccc(N3CCC(O)(CN=[N+]=[N-])CC3)cc2)C(=O)O1", "134 to 136 °C"),
    ("CCOc1c(C(=O)OCC(C)(C)C(=O)C(C)(C)C)oc2ccc(OC)cc12", "105 to 106 °C"),
]

Can you look up the measured melting point of CCC(=O)OCCSCC(=O)NC/C=C\COc1cc(CN2CCCCC2)ccn1 for me?
99 to 106 °C

Can you look up the measured melting point of Cn1ccc(=O)c2ccc(F)cc21 for me?
146 to 149 °C

Can you look up the measured melting point of COc1cc2c(cc1OC)C(=CC(N)=O)NCC2 for me?
156 to 158 °C

Can you look up the measured melting point of Cn1cc2c3c(cccc31)C(=O)NCC2 for me?
194 to 195 °C

Can you look up the measured melting point of Fc1ccc(-c2nc(-c3ccccc3)sc2-c2ccncc2)cc1 for me?
135 to 137 °C

Can you look up the measured melting point of Cc1ccc2c(c1)S(=O)CC(COC(=O)Nc1ccccc1)(COC(=O)Nc1ccccc1)C2=O (configuration not stated) for me?
65 to 73 °C

----------
ATTRIBUTE MEASURED: melting point

# COMPOUND, ASSAY VALUE
data = [
    ("CC1C(=O)N(c2ccc(Oc3ccccc3)cc2)C(=S)N1c1ccccc1 (stereo unspecified)", "132 °C"),
    ("Cc1ncc2cc(-c3c(C)cccc3Cl)c(N)nc2n1", "267 to 271 °C"),
]

Can you look up the measured melting point of CCCc1nn(-c2ccc(C(F)(F)F)cn2)cc1CCCOc1ccc(C(C)(C)C(=O)O)cc1 for me?
84 to 85 °C

Can you look up the measured melting point of COc1nc(NC(=O)NS(=O)(=O)c2ccccc2S(=O)(=O)N2CCC2)nc(OC)n1 for me?
175 to 177 °C

Can you look up the measured melting point of O=C1c2cc(Cl)c(Cl)cc2C(O)N1CCO[N+](=O)[O-] (stereo unspecified) for me?
145 to 147 °C

Can you look up the measured melting point of CCOC(=O)Cn1cc(F)cnc1=O for me?
121 °C

Can you look up the measured melting point of Cc1noc(-c2ccc(=O)n3c2-c2sc(-c4ccccc4)cc2SCC3)n1 for me?
183 to 185 °C

Can you look up the measured melting point of O=C(O)Cc1ccc(C(=O)c2ccc(Cl)cc2)s1 for me?
165 °C

Can you look up the measured melting point of COc1cccc(OS(=O)(=O)c2ccc(N3CCN(C)C3=O)cc2)c1 for me?
111 to 113 °C

Can you look up the measured melting point of O[C@@H]1CNCC[C@H]1NCc1ccccc1 (relative stereo) for me?
136 °C

Can you look up the measured melting point of CN(C)c1cc(C(=O)CS(C)(=O)=O)cc(N(C)C)c1C(C)(C)C for me?
177 to 179 °C

Can you look up the measured melting point of COc1ccc(CBr)c(Cl)c1Cl for me?
101 to 102 °C

----------
ATTRIBUTE MEASURED: melting point

# SMILES ENTRY, melting point
rows = [
    ("COc1ccc(-c2ccc3n[nH]c(=O)n3n2)cc1F", "289 to 290 °C"),
    ("Cc1ccc(-c2c3n(c(=O)c4ncccc24)CCN(Cc2cc(C(F)(F)F)cc(C(F)(F)F)c2)C3=O)cc1", "270 to 271 °C"),
    ("COc1ccc(C(=O)O)c2c1OCCCO2", "186 °C"),
    ("CC(=O)N(C(C)=O)c1nc2n(n1)CCc1ccccc1-2", "139 to 140 °C"),
    ("CNC(=O)c1ccc(NCC(=O)O)cc1", "234 °C"),
]

We next turn to a different compound, shown below.
Can you look up the measured melting point of CCOC(=O)Oc1cccc(OC)c1Cl for me?
75 to 76 °C

----------
Overview of reported melting point across a group of compounds:

# COMPOUND, ATTRIBUTE MEASURED, ASSAY VALUE
rows = [
    ("CCCCCCCCCCNC(=S)Nc1ccc(NNC=O)cc1", "melting point", "150 to 152 °C"),
    ("COc1cccc(C2C=C(C)NC3=C2C(=O)CCC3)c1 (stereo unspecified)", "melting point", "164 to 167 °C"),
    ("O=C1OC2(C=C1c1ccccc1)C=C(c1ccccc1)C(=O)O2", "melting point", "235 to 237 °C"),
    ("O=C(Nc1ccccn1)Nc1csc(-c2ccccn2)n1", "melting point", "233 to 235 °C"),
    ("CCCCCCCCc1ccc(-c2ccc(O)c(F)c2)nc1", "melting point", "73.5 to 74.6 °C"),
]

Can you look up the measured melting point of O=C(O)c1cn(CC2CC2)c2ccccc12 for me?
157 °C

----------
ATTRIBUTE MEASURED: melting point (°C)

# COMPOUND, melting point [°C]
measured = [
    ("CC1(C)Oc2ccc(C#N)cc2[C@@H](NC(=O)c2ccc(C(F)(F)F)cc2)[C@@H]1O (relative stereo)", 225),
]

P: Cc1cc(-c2ccc(Cl)cc2)nc(-n2cnc(-c3cccc(S(N)(=O)=O)c3)c2)n1
Q: NC1NC=CN1c1ccncc1 (stereo not given)
R: ClCCCOc1ccccc1Cc1cccc2[nH]ccc12
rank_up(items): orders items by reported melting point in ascending numerical order. Please respond by ranking the labels in the order requested.
R, Q, P
(R: 75 °C, Q: 190 °C, P: 275 °C)

----------
Overview of reported melting point across a group of compounds:

# COMPOUND, ASSAY VALUE
data = [
    ("CON=C(C(=O)O)c1nsc(NC(=O)OCc2ccccc2)n1", "138 to 142 °C"),
]

We next turn to a different compound, shown below.
Can you look up the measured melting point of C#CC(=O)c1cc(C(C)(C)C)c(O)c(C(C)(C)C)c1 for me?
100 to 101 °C

----------
Overview of reported melting point across a group of molecules:

Recorded melting point, per entry:
# MOLECULE, melting point
records = [
    ("COC(=O)c1cc(I)cc(OC)c1O", "104 °C"),
    ("CC(=O)c1cccc(Oc2ncccc2C(=O)NCC2CCC(C(C)(C)O)CC2)c1 (stereo not given)", "105 to 107 °C"),
    ("CC(C)(C#N)c1ccc(C(=O)Nc2cn3cc(-n4ccnc4)ccc3n2)cc1", "241 to 244 °C"),
    ("O=c1c2ccccc2nc(CCl)n1-c1cccc(Cl)c1", "202 to 205 °C"),
    ("COC(=O)c1cc(NC(=N)N)c(NC(C)=O)c(Br)c1O", "238 to 240 °C"),
    ("O=C(O)COc1ccc2c(-c3cccc(F)c3F)noc2c1Cl", "183 to 187 °C"),
    ("COCCc1nc2c(N)nc3ccccc3c2n1CC1(O)CCC1", "169 to 171 °C"),
    ("O=C(NCc1ccn(-c2cc3nc(C(=O)O)c(=O)[nH]c3cc2C(F)(F)F)c1)Nc1ccc(F)cc1", "168 to 170 °C"),
    ("COc1ccc2c(c1)CCC1C2=CCC2(C)C1CCC21OCCO1 (stereo not given)", "146 to 149 °C"),
]

Can you look up the measured melting point of CN(C)c1ccc(Cn2cnc3c(Cl)ncnc32)cc1 for me?
125 to 127 °C
